Test system: Fibroblast
protocol: Incucyte cell viability with human fibroblast; further: unitless GR value; below 1 slowed growth and below 0 cell loss
Assay type: toxicity, cell-based
condition-summary: 12 h, 10 µM, compound concentration 10 uM, replicate number 2
Dear colleague, classification is by Growth Rate, with ranges listed here: class 0 (below 0.3), class 1 (0.3 to below 0.6), class 2 (0.6 or more)

Prompt line: Bin this entry: "N[C@@H](CC(=O)O)Cn1nnc(-c2ccc(Oc3ncc(Cl)cc3F)cc2)n1"
Response line: class 1

Prompt line: Bin this entry: "O=C(Nc1ccc(N2CCC(C(=O)N3CCOCC3)CC2)cc1)c1cnc(Oc2ccccc2)nc1"
Response line: class 2

Prompt line: Bin this entry: "O=C(CCCCCCc1ccccc1)c1ncc(-c2ccccn2)o1"
Response line: class 2

Prompt line: Bin this entry: CN1[C@@H](CC(=O)c2ccccc2)CCC[C@H]1C[C@H](O)c1ccccc1.Cl [LOBELINE HYDROCHLORIDE]
Response line: class 2

Prompt line: Bin this entry: "CNS(=O)(=O)c1ccc(N(C)C)c(Nc2ncnc3cc(OC)c(OC)cc23)c1"
Response line: class 1

Prompt line: Bin this entry: CC(CNS(=O)(=O)C(C)C)c1ccc(-c2ccc(C#N)cc2)cc1 (centres undefined)
Response line: class 0

Prompt line: Bin this entry: O=C(O)c1ccc(OCCCc2ccc(OCCCCOC3CCCCC3)cc2)c(C(=O)NC2CCCC(C(=O)O)C2)c1 (centres undefined)
Response line: class 0

Prompt line: Bin this entry: "Cn1cncc1-c1cn(-c2cccc(C(=O)Nc3cccc(C(F)(F)F)c3)c2)nn1"
Response line: class 2

Prompt line: Bin this entry: "CC1(C)CCN(C(=O)C2CN(c3c4c(nc5ccnn35)CCNCC4)C2)C1.O=C(O)C(F)(F)F"
Response line: class 2

Prompt line: Bin this entry: "NC(=O)c1cc2c(-c3ccc(C(=O)NCc4ccnc(Cl)c4)s3)cccc2s1"
Response line: class 0

Prompt line: Bin this entry: CC(C)(C)C1CCc2c(sc(NC(=O)c3ccco3)c2C(=O)O)C1 (centres undefined)
Response line: class 2

Prompt line: Bin this entry: "COc1cc(F)ccc1-c1ncnc(Nc2cccc(C[S@](C)(=N)=O)c2)n1"
Response line: class 0

Prompt line: Bin this entry: "COc1ccccc1C(=O)Nc1cccc(NC(=O)c2cccc(C)c2)c1"
Response line: class 2

Prompt line: Bin this entry: "Cl.Clc1ccc(OC[C@H]2CCN2)cn1"
Response line: class 1

Prompt line: Bin this entry: "O=C(O)c1ccc(CN2C[C@@H]3C[C@H]2CN3Cc2ccc(Oc3ccc(-c4ncco4)cc3)cc2)cc1"
Response line: class 1

Prompt line: Bin this entry: "Cc1ccc(C(=O)Nc2cc(N3CCN(C)CC3)cc(C(F)(F)F)c2)cc1-n1cc(-c2cnn(C)c2C)nn1.Cl"
Response line: class 0

Prompt line: Bin this entry: "CC(C)c1cnn2c(NCc3ccccc3)cc(NCCCCCCN)nc12.Cl"
Response line: class 2

Prompt line: Bin this entry: "COC(=O)c1sccc1S(=O)(=O)Nc1ccc(Nc2ccccc2)cc1OC"
Response line: class 1
